B1: Intersectin-1, residues 909 to 971; numbered along this chain, Q15811 (parent)
chain: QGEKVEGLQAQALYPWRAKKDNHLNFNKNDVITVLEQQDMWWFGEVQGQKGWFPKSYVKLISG

- Variants of: B1
- test-details: abundance fitness (aPCA) (normalised: wild type 0, dead -1); higher = more abundant; growth selection in yeast, the domain comes from the species named
- condition-description: Homo sapiens
Reported abundance fitness values follow for various variants
Enter a number only.

abundance fitness recorded for this variant, D39C , is -0.262

abundance fitness recorded for this variant, I61K , is -0.079

abundance fitness recorded for this variant, A18S , is -0.058

abundance fitness recorded for this variant, K19P , is -0.139
